Target: T1, human recombinant calbindin D28k (human, UniProt P05937 1-261, limits assumed)
T1 sequence (looked up): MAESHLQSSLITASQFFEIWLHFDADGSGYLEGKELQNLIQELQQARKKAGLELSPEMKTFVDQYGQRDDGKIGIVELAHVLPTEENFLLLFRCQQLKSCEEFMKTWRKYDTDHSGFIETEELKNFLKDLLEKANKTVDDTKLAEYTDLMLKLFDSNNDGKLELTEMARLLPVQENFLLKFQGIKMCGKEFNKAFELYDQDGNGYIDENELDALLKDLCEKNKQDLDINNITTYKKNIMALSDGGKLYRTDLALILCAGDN
Test: cell-based or functional assay
measured.metric: % Inhibition of Calbindin Activation (%)
// return numeric value only (unit: %, not printed)

Fill blank: measured % Inhibition of Calbindin Activation of the binder IKEAYP [Peptide 3 (Ile-Lys-Glu-Ala-Tyr-Pro)] is ____. 100

Fill blank: measured % Inhibition of Calbindin Activation of the binder IKEKYP [Peptide 1 (Ile-Lys-Glu-Lys-Tyr-Pro)] is ____. 78

Fill blank: measured % Inhibition of Calbindin Activation of the binder IAEAYP [Peptide 6 (Ile-Ala-Glu-Ala-Tyr-Pro)] is ____. 0

Fill blank: measured % Inhibition of Calbindin Activation of the binder KHIKPS [Peptide 7 (Lys-His-Ile-Lys-Pro-Ser)] is ____. 56

Fill blank: measured % Inhibition of Calbindin Activation of the binder SYEHYP [Peptide 5 (Ser-Tyr-Glu-His-Lys-Pro)] is ____. 56

Next:
Fill blank: measured % Inhibition of Calbindin Activation of the binder IKEKY [Peptide 9 (Ile-Lys-Glu-Lys-Tyr)] is ____. 0

Fill blank: measured % Inhibition of Calbindin Activation of the binder IKAKYP [Peptide 2 (Ile-Lys-Ala-Lys-Tyr-Pro)] is ____. 100

Fill blank: measured % Inhibition of Calbindin Activation of the binder IAAAYP [Peptide 8 (Ile-Ala-Ala-Ala-Tyr-Pro)] is ____. 0

Fill blank: measured % Inhibition of Calbindin Activation of the binder IAEKYP [Peptide 4 (Ile-Ala-Glu-Lys-Tyr-Pro)] is ____. 89

Fill blank: measured % Inhibition of Calbindin Activation of the binder KEK [Peptide 10 (Lys-Glu-Lys)] is ____. 0
